Every entry's value here was drawn from ChEMBL document CHEMBL2384970.

Assay: Inhibition of bovine pancreatic alpha-chymotrypsin using Suc-Leu-Leu-Val-Tyr-AMC as substrate measured over 10 mins by fluorescence assay
Parameters: species or system Bos taurus
pKi: −log10 of the molar value.

| ENTRY_SMILES | pKi |
| --- | --- |
| CC(C)C[C@H](NC(=O)Cn1ccc(Nc2ccccc2)cc1=O)B(O)O | 4.90 |
| CC(C)C[C@H](NC(=O)[C@H](C)n1ccc2ncccc2c1=O)B(O)O | 5.04 |

---

Target: Proteasome Macropain subunit MB1 (Homo sapiens, UniProt P28074)
Sequence (P28074 whole entry): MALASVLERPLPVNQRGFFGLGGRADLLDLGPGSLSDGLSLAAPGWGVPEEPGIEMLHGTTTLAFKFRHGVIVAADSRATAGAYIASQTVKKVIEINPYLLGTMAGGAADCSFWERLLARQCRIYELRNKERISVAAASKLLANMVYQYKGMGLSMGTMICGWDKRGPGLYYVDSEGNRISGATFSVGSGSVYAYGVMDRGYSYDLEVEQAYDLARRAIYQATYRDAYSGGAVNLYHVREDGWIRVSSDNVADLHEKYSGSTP
Assay: Inhibition of human 20S proteasome chymotrypsin like activity using Suc-Leu-Leu-Val-Tyr-AMC as substrate measured over 10 mins by fluorescence assay
QUANTITY_MEASURED: Ki (nM)

| ENTRY_SMILES | OBS_VALUE |
| --- | --- |
| CC(C)C[C@H](NC(=O)Cn1ccc2ncccc2c1=O)B(O)O | 440 |
| CC(C)C[C@H](NC(=O)Cn1ccc2c(c1=O)CCCN2C)B(O)O | 1620 |
| CC(C)C[C@H](NC(=O)Cn1ccc(Nc2ccccc2)cc1=O)B(O)O | 98 |
| CC(C)C[C@H](NC(=O)Cn1ccccc1=O)B(O)O | 260 |
| CC(C)C[C@H](NC(=O)Cn1ccc(N2CCCCC2)cc1=O)B(O)O | 300 |
| CC(C)C[C@H](NC(=O)Cn1cc(Br)c2ncccc2c1=O)B(O)O | 170 |
| CCN(CC)c1ccn(CC(=O)N[C@@H](CC(C)C)B(O)O)c(=O)c1 | 800 |
| CC(C)C[C@H](NC(=O)[C@H](C)n1ccc2ncccc2c1=O)B(O)O | 1340 |
| CC(C)C[C@H](NC(=O)Cn1ccc(N2CCOCC2)cc1=O)B(O)O | 1450 |
| C=CCN1CCN(c2ccn(CC(=O)N[C@@H](CC(C)C)B(O)O)c(=O)c2)CC1 | 5900 |

---

Organism: Homo sapiens
Assay: Selectivity ratio of Ki for human 20S proteasome post-glutamyl peptide hydrolyzing activity to Ki for human 20S proteasome chymotrypsin like activity

| ENTRY_SMILES | Ratio Ki |
| --- | --- |
| CC(C)C[C@H](NC(=O)[C@H](C)n1ccc2ncccc2c1=O)B(O)O | 10 |
| CC(C)C[C@H](NC(=O)Cn1ccccc1=O)B(O)O | 5.3 |
| CCN(CC)c1ccn(CC(=O)N[C@@H](CC(C)C)B(O)O)c(=O)c1 | 5.5 |
| CC(C)C[C@H](NC(=O)Cn1ccc(Nc2ccccc2)cc1=O)B(O)O | 52 |
